# AI activity % inhibition at 1 hr (carrageenan paw edema) per entry
# Test system: carrageenan-induced rat paw edema
# experimentSummary: In vivo carrageenan induced rat paw edema assay
# Design: species or system rat (male Sprague-Dawley)
# reportedConditions: compound intravenously in DMSO one hour before carrageenan, at 1 hr, vs vehicle control = 0%
# Procedure: Anti-inflammatory activity was determined by the carrageenan-induced rat paw edema method described by Winter et al., Proc. Soc. Exp. Biol. Med. 1962, 111, 544, using male Sprague-Dawley rats weighing 150 to 200 g (6-8 weeks old). […] Anti-inflammatory activity was determined by the carrageenan-induced rat paw edema method described by (Winter et al. Proc. Soc. Exp. Biol. Med. 1962, 111, 544). […]
State the answer as a number, implicitly in %.

Here's what some known entries look like.
compound: C=CCCCSc1nnc(-c2ccncc2)n1-c1ccccc1
dataValue: 9

compound: CCN(CC)Cn1nc(-c2ccncc2)n(-c2ccccc2)c1=S
dataValue: 45

Let us examine a further case.
What AI activity % inhibition at 1 hr (carrageenan paw edema) appears in the records for this compound with carrageenan-induced rat paw edema? CCCC(C)Sc1nnc(-c2ccncc2)n1-c1ccccc1 (stereo not drawn)
36
